target entity: human α7 nAChR (Homo sapiens, UniProt P36544)
Construct: host or cells: GH4C1 cells (pituitary tumor, immortalized cell line)
Sequence (P36544 23-502): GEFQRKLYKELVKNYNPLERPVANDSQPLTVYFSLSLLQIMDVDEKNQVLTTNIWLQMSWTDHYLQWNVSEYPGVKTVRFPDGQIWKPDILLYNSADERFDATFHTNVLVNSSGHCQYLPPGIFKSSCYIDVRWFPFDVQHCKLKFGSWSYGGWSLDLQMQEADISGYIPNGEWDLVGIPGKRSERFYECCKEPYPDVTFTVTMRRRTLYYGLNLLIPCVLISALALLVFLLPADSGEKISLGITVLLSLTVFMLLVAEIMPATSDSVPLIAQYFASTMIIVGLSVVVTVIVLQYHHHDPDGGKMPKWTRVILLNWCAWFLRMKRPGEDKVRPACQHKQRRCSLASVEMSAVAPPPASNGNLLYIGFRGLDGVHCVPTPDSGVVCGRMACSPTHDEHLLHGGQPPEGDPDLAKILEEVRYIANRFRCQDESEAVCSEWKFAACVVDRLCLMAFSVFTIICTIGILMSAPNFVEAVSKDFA
measurement description: α7 nAChR FLIPR (Fluorometric Imaging Plate Reader) Ca2+ assay, agonist EC50
Assay type: cell-based
assay setup: GH4C1 cells stably transfected with human α7 nAChR; Fluo-4 Ca2+ fluorescence; Examples 194 to 205 tested as the HCl salt; read-out: pEC50 value (negative logarithm of the agonist EC50) (converted)
Measured EC50 accompanies every entry in the list below.

Some entries whose results are on file:
>  <molecule>
O=C(Nc1ccc(-c2nnc(NCCCCN3CCCCC3)o2)c(C(F)(F)F)c1)c1ccccc1F

>  <EC50>
≤ 100 nM

$$$$
>  <molecule>
COc1cc(NC(=O)C2CCCCC2)ccc1-c1nnc(NCCCN2CCOCC2)o1

>  <EC50>
≤ 1000 nM

$$$$
>  <molecule>
CCN(CC)CCCCNc1nnc(-c2ccc(NC(=O)C3CCCCC3)cc2C(F)(F)F)o1

>  <EC50>
≤ 1000 nM

$$$$
>  <molecule>
CCN(CC)CCCNc1nnc(-c2ccc(NC(=O)C3CCCCC3)cc2)o1

>  <EC50>
≤ 1000 nM

$$$$

Ask: So what's the measured EC50 for this one? CCN(CC)CCCCNc1nnc(-c2ccc(NC(=O)c3ccccc3F)cc2Cl)o1
Reply: ≤ 100 nM

Ask: Continue with O=C(Nc1ccc(-c2nnc(NCCCCN3CCCCC3)o2)c(Cl)c1)c1ccccc1
Reply: ≤ 100 nM

Ask: Now the same for O=C(Nc1ccc(-c2nnc(NCCCCN3CCCCC3)o2)c(C(F)(F)F)c1)C1CCCCC1
Reply: ≤ 100 nM

Ask: Let us now turn to O=C(Nc1ccc(-c2nnc(NCCCCN3CCCC3)o2)c(Cl)c1)c1ccccc1
Reply: ≤ 100 nM

Ask: And for CCN(CC)CCCNc1nnc(-c2ccc(NC(=O)c3ccccc3)cc2)o1 ?
Reply: ≤ 1000 nM

Ask: # iterate: O=C(Nc1ccc(-c2nnc(NCCCCN3CCOCC3)o2)c(C(F)(F)F)c1)c1ccccc1F
Reply: ≤ 1000 nM

Ask: // query: O=C(Nc1ccc(-c2nnc(NCCCN3CCCCC3)o2)cc1)C1CCOCC1
Reply: ≤ 1000 nM

Ask: Also, CCN(CC)CCCNc1nnc(-c2ccc(NC(=O)CC(C)C)cc2OC)o1 please.
Reply: ≤ 1000 nM

Ask: And the next one, CCC(C)N(C)CCCNc1nnc(-c2ccc(NC(=O)c3ccccc3F)cc2)o1 (centres unmarked) ?
Reply: ≤ 1000 nM

Ask: Another molecule to check: CCN(CC)CCCNc1nnc(-c2ccc(NC(=O)C3CC3)cc2OC)o1
Reply: ≤ 1000 nM

Ask: Follow-up entry: CCN(CC)CCCNc1nnc(-c2ccc(NC(=O)c3ccc(F)cc3)cc2OC)o1
Reply: ≤ 1000 nM

Ask: And then CCc1cc(NC(=O)c2ccccc2F)ccc1-c1nnc(NCCCCN2CCCCC2)o1 , what is it?
Reply: ≤ 1000 nM

Ask: Param item: COc1cc(NC(=O)C2CCCCC2)ccc1-c1nnc(NCCCN2CCCCC2)o1
Reply: ≤ 1000 nM
